ASSAY: Initial plasma concentration in Beagle dog at 1 mg/kg, iv
Type: ADME, organism-based, Canis lupus familiaris
QUANTITY_KIND: C0
State the value with its unit after it.

Which value of C0 has been reported for `CC#C[C@@H](CC(=O)O)c1ccc(OCc2ccc3nc(-c4c(C)cccc4C)nn3c2)cc1` in the records?
8240 ng/mL

* * *

MEASURED_ON: Peroxisome proliferator-activated receptor alpha (Homo sapiens) (UniProt Q07869)
Sequence (whole entry): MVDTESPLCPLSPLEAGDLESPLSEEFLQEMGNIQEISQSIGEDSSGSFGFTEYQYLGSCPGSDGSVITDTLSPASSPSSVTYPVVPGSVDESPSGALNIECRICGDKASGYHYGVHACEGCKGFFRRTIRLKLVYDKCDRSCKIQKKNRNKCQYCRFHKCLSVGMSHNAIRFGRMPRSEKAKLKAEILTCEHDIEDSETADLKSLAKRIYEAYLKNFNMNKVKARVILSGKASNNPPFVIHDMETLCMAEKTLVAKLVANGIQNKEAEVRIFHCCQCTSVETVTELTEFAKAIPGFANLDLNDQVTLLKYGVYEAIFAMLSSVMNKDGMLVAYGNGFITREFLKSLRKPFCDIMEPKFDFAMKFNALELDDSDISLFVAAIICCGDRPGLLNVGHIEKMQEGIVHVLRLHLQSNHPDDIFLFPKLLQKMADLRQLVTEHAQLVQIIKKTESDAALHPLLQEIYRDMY
ASSAY: Agonist activity at GAL4-fused human PPARalpha expressed in African green monkey CV1 cells up to 30 uM after 24 hrs by luciferase reporter gene assay
Format: cell-based
The source made the active and inactive calls. The calls are words filed in the database; no cut-off is given here.
QUANTITY_KIND: Activity

compound_smiles=CC#C[C@@H](CC(=O)O)c1ccc(OCc2ccc3nc(-c4ccc(OC(F)F)cc4)nn3c2)cc1 quantity_kind=Activity reading=inactive
compound_smiles=CC#C[C@@H](CC(=O)O)c1ccc(OCc2ccc3nc(-c4ccc(OCCOC)cc4)nn3c2)cc1 quantity_kind=Activity reading=inactive
compound_smiles=CC#C[C@@H](CC(=O)O)c1ccc(OCc2ccc3nc(-c4ccc(C#N)cc4)nn3c2)cc1 quantity_kind=Activity reading=inactive

* * *

MEASURED_ON: Free fatty acid receptor 1 (Homo sapiens, UniProt O14842)
Sequence (O14842 whole entry): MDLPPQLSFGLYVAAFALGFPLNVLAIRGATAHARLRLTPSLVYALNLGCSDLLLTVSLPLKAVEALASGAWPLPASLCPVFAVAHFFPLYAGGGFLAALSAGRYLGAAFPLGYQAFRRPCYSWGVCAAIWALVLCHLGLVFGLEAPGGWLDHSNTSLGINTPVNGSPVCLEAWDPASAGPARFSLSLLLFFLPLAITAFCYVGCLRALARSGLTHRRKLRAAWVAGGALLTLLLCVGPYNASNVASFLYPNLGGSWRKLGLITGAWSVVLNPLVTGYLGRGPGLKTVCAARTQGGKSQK
ASSAY: Agonist activity at human PK-tagged GPR40 expressed in HEK293 cells assessed as EA-tagged beta-arrestin recruitment after 90 mins in presence of 1 % heat inactivated FBS by beta-galactosidase reporter gene assay relative to untreated control
Assay type: cell-based
I'd be grateful if you could share measured %max for these entries.
# number only, unit % dropped from output

Which value of %max has been reported for `CC#C[C@@H](CC(=O)O)c1ccc(OCc2ccc3nc(-c4c(C)cc(OCCCS(C)(=O)=O)cc4C)nn3c2)cc1` in the records?
114

Which value of %max has been reported for `CC#C[C@@H](CC(=O)O)c1ccc(OCc2ccc3nc(-c4c(C)cccc4C)nn3c2)cc1` in the records?
124

Which value of %max has been reported for `CC#C[C@@H](CC(=O)O)c1ccc(OCc2ccc3nc(-c4ccc(OCCC(C)(C)O)cc4)nn3c2)cc1` in the records?
132

Which value of %max has been reported for `CC#C[C@@H](CC(=O)O)c1ccc(OCc2ccc3nc(-c4ccc(OC(F)F)cc4)nn3c2)cc1` in the records?
127

Which value of %max has been reported for `CC#C[C@@H](CC(=O)O)c1ccc(OCc2ccc3nc(-c4ccc(OCCOC)cc4)nn3c2)cc1` in the records?
121

Which value of %max has been reported for `CC#C[C@@H](CC(=O)O)c1ccc(OCc2ccc3nc(-c4ccc(C(C)C)cc4)nn3c2)cc1` in the records?
154

Which value of %max has been reported for `CC#C[C@@H](CC(=O)O)c1ccc(OCc2ccc3nc(-c4ccc(C#N)cc4)nn3c2)cc1` in the records?
124
